Value source: patent US20260240208A1

Provide the reported EC50 of each item.
# measured-target: TIR sweet taste receptor (Homo sapiens, UniProt Q7RTX0+Q8TE23)
# Sequence (Q8TE23 20-839): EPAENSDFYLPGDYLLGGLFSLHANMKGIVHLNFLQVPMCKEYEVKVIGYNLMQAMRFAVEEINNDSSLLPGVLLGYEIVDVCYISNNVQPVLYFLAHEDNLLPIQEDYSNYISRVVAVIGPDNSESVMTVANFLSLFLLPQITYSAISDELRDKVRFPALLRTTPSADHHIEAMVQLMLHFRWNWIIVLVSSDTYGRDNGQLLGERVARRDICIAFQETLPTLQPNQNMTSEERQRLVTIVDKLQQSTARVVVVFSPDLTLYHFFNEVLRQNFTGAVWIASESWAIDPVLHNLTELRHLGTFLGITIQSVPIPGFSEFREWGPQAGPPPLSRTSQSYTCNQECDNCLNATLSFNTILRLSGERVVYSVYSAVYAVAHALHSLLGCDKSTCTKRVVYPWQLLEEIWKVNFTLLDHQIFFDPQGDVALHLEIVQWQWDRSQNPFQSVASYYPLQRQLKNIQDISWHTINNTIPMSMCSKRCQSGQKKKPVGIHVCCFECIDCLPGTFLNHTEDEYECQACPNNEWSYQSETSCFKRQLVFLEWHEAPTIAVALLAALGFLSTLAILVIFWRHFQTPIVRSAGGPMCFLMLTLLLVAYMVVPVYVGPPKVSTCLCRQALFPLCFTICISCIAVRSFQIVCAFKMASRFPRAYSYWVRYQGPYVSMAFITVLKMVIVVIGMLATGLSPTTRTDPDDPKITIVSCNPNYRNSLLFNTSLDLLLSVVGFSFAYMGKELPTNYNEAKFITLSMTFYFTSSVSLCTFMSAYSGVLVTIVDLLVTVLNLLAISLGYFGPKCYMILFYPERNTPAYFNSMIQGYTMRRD
# Sequence (Q7RTX0 21-852): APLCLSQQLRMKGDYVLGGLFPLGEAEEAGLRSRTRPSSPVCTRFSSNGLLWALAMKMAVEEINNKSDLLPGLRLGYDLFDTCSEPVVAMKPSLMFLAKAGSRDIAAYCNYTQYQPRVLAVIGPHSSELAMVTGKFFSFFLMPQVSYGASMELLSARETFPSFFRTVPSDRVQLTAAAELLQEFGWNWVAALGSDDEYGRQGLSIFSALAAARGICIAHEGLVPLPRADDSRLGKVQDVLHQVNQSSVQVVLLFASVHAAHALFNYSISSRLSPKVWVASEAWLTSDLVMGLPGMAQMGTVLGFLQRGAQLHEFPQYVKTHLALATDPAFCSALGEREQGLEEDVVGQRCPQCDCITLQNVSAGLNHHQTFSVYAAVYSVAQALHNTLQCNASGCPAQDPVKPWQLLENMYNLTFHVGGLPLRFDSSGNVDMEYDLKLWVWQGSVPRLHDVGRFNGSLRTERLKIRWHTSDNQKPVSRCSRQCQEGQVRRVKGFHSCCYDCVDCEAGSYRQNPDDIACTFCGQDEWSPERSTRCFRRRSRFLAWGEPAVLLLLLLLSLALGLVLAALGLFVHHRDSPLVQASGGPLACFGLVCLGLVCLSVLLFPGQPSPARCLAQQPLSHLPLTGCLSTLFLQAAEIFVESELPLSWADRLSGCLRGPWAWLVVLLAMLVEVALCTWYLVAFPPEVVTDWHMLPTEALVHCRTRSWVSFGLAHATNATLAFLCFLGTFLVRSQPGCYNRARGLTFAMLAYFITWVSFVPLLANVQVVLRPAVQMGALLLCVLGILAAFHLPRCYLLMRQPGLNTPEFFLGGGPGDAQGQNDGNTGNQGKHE
# assay-remarks: in vitro cell-based assay with cells overexpressing the sweet taste receptor, sweet dose-response
# measurement-context: cells overexpressing TIR sweet taste receptor; sweet dose-response curves

Each molecule below has a recorded value; state its EC50.
1. COc1ccc(C2Oc3cc(O)ccc3C(=O)C2OC(C)=O)cc1O (stereo not drawn) [Compound 103]
2. CC(=O)OC1C(=O)c2c(O)cccc2OC1c1ccc(O)cc1 (stereo not drawn) [Compound 106]
3. CCC(=O)OC1C(=O)c2c(O)cc(O)cc2OC1c1ccc(OC)c(O)c1 (stereo not drawn) [Compound 105]
4. COc1ccc(C2Oc3cccc(O)c3C(=O)C2OC(C)=O)cc1O (stereo not drawn) [Compound 101]
5. CCC(=O)OC1C(=O)c2ccc(O)cc2OC1c1ccc(OC)c(O)c1 (stereo not drawn) [Compound 104]
6. CCC(=O)OC1C(=O)c2c(O)cccc2OC1c1ccc(OC)c(O)c1 (stereo not drawn) [Compound 102]

output:
["~8 µM", "~45 µM", "~5 µM", "~1 µM", "~10 µM", "~2 µM"]
